Item-by-item account of logP
Where a SMILES comes first, the peptide text is derived from it.

Take a look at these entries with their results.
(Q) I would be grateful if you could share the reported logP for "CCCOc1ccccc1CNc1[nH]cnc2ncnc1-2" .
(A) 3.27

(Q) I would be grateful if you could share the reported logP for "O=S(=O)(NC(=S)N1CCCCC1)c1cnccc1NC1CCCCCCC1" .
(A) 4.5

(Q) I would be grateful if you could share the reported logP for C=C1C(=O)OC2CC(C)C3C4CC(=O)C3(CC12)C1(C4)C(=O)OC2CC(C)C3C=CC(=O)C3(C)C(O)C21 (stereo not given) .
(A) 1.66

(Q) I would be grateful if you could share the reported logP for CC(C)C[C@H](NC(=O)[C@@H](NC(=O)[C@@H](N)CC(C)C)C(C)C)C(=O)O (H-Leu-Val-Leu-OH) .
(A) -1.57

(Q) I would be grateful if you could share the reported logP for CCC(C)C(NC(=O)C(N)Cc1ccc(O)cc1)C(=O)NC(CC(C)C)C(=O)NCC(=O)O (stereo not given) (H-YILG-OH; configuration not given here) .
(A) -1.49

(Q) I would be grateful if you could share the reported logP for Cn1c([N+](=O)[O-])cnc1C1=NOC2CCCCC12 (stereo not given) .
(A) 2.22

(Q) I would be grateful if you could share the reported logP for "COc1cc2ncnc(Nc3cccc(Cl)c3)c2cc1OC" .
(A) 3.51

(Q) I would be grateful if you could share the reported logP for "O=[N+]([O-])c1nccn1COCC=CCO" .
(A) -0.28

(Q) I would be grateful if you could share the reported logP for "Cn1cnc([N+](=O)[O-])c1S(N)(=O)=O" .
(A) -0.74

(Q) I would be grateful if you could share the reported logP for NC1=NCC(COc2ccccc2Cc2ccccc2)O1 (stereo not given) .
(A) 3.05

Next:
(Q) I would be grateful if you could share the reported logP for "CCC(=O)[C@@]1(C)CC[C@H]2[C@@H]3CCC4=CC(=O)CCC4=C3CC[C@@]21C" .
(A) 4.04

----------
Would you mind labelling by logP? At or over 3 is 1, under is 0.

Example cases with answers are listed next.
(Q) Assess whether reported logP for CC1(C)OC23CC1CCC2CCCC3(C)O (stereo not given) sits at 3 or higher.
(A) 1

(Q) Assess whether reported logP for "CNc1ccc2cc3ccccc3nc2c1CO" sits at 3 or higher.
(A) 0

Next:
(Q) Assess whether reported logP for "c1cc2ccc1CCc1ccc(cc1)CC2" sits at 3 or higher.
(A) 1

(Q) Assess whether reported logP for "Cc1oc2ccc3c(C)cc(=O)oc3c2c1C" sits at 3 or higher.
(A) 1

(Q) Assess whether reported logP for "Cc1oc2nc3oc(=O)c(C)c(C)c3cc2c1C" sits at 3 or higher.
(A) 0

(Q) Assess whether reported logP for "Nc1nc(N)c2c(OCc3ccccc3)cccc2n1" sits at 3 or higher.
(A) 0

(Q) Assess whether reported logP for COC(=O)C(C)=CC1C(C(=O)OCc2cccc(C#N)c2)C1(C)C (stereo not given) sits at 3 or higher.
(A) 1

(Q) Assess whether reported logP for CCCCC(O)C(CCCCOc1cccc2ccccc12)n1cncn1 (stereo not given) sits at 3 or higher.
(A) 1

(Q) Assess whether reported logP for "CC(=NNC(=O)c1ccncc1)c1cnccn1" sits at 3 or higher.
(A) 0

(Q) Assess whether reported logP for COc1ccc(C2Cc3cc(OC(F)F)ccc3N(CCN(C)C)C(=O)C2OC(C)=O)cc1 (stereo not given) sits at 3 or higher.
(A) 1

(Q) Assess whether reported logP for COc1ccc2cc(C(C)C(=O)OCCCCOC(C)=O)ccc2c1 (stereo not given) sits at 3 or higher.
(A) 1

(Q) Assess whether reported logP for "Oc1cccc(CNc2ncnc3nc[nH]c23)c1" sits at 3 or higher.
(A) 0

(Q) Assess whether reported logP for Cc1nn(-c2cc(CC(Cl)C(=O)O)c(Cl)cc2F)c(=O)n1C(F)F (stereo not given) sits at 3 or higher.
(A) 1

(Q) Assess whether reported logP for NC1=NCC(CN2CCOCC2)O1 (stereo not given) sits at 3 or higher.
(A) 0

(Q) Assess whether reported logP for CC(C)C1(C)N=C(c2ncc(CO)cc2C(=O)O)NC1=O (stereo not given) sits at 3 or higher.
(A) 0

(Q) Assess whether reported logP for "O=c1[nH]c2cc(Cl)ccc2c(O)c1-c1ccccc1" sits at 3 or higher.
(A) 1

(Q) Assess whether reported logP for "c1ccc(CCCNc2[nH]cnc3ncnc2-3)cc1" sits at 3 or higher.
(A) 0

(Q) Assess whether reported logP for "CCCOC(=O)C=COc1ccccc1" sits at 3 or higher.
(A) 1

(Q) Assess whether reported logP for "C[N+](C)([O-])CC(c1ccccc1)c1ccccc1" sits at 3 or higher.
(A) 0

(Q) Assess whether reported logP for "C=C(Br)CON=C(C)c1cccc(Oc2nc(OC)cc(OC)n2)c1C(=O)OC" sits at 3 or higher.
(A) 1

These data points were gathered from the OPERA property sets (Mansouri et al. 2018).
